- test_details: CCTE_Simmons_MITO_inhib_resp_rate: CCTE's HepG2 Seahorse XF Respirometric Screening Assay at Inhibited Respiratory State [full ETC block], Simmons Lab (AID 2284006)
- recorded_conditions: actives raise or lower the signal
Calls of active or inactive are those of the source. Rule for the calls: active = hit-call score of the fitted dose curve at least 0.9, where 1 is the maximum; inactive = score below 0.9.
// one of y for active, n for inactive, no free text

Consider the following illustrative entries.
| molecule | assigned_label |
| --- | --- |
| CCOP(=O)(NC(C)C)Oc1ccc(SC)c(C)c1 (stereo not given) | n |
| O=C(O)c1cc(Oc2ccc(C(F)(F)F)cc2Cl)ccc1[N+](=O)[O-] | n |
| CSC1=N[C@@](C)(c2ccccc2)C(=O)N1Nc1ccccc1 | n |

Query: Status in this test for CCOP(=S)(Oc1cnc(C(C)(C)C)nc1)OC(C)C (stereo not given) ?
Result: n

Query: Status in this test for CC[C@H](C)[C@H]1O[C@]2(C=C[C@@H]1C)C[C@@H]1C[C@@H](C/C=C(\C)[C@@H](O[C@H]3C[C@H](OC)[C@@H](O[C@H]4C[C@H](OC)[C@@H](NC)[C@H](C)O4)[C@H](C)O3)[C@@H](C)/C=C/C=C3\CO[C@@H]4[C@H](O)C(C)=C[C@@H](C(=O)O1)[C@]34O)O2 ?
Result: y

Query: Status in this test for CCCSP(=O)(OCC)Oc1ccc(Br)cc1Cl (stereo not given) ?
Result: n

Query: Status in this test for COP(=O)(OC)OC(Br)C(Cl)(Cl)Br (stereo not given) ?
Result: n
